# ASSAY SYSTEM: D1 receptors (Rattus norvegicus)
# Sequence (P18901 whole entry): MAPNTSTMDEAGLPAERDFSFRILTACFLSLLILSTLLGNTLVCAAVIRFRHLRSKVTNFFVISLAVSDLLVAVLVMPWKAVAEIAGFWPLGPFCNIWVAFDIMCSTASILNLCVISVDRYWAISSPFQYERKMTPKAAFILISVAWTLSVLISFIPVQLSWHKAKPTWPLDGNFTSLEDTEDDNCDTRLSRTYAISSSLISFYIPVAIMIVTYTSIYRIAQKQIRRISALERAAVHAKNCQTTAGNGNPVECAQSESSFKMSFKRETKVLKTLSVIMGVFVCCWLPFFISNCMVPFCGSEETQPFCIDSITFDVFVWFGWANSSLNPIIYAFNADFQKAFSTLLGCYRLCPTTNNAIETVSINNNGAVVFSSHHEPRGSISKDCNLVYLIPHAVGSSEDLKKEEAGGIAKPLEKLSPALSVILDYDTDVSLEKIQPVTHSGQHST
# PROCEDURE TEXT: Binding affinity at rat brain striatal D1 receptors (3H-SCH 23390)
# MEASUREMENT SETUP: read-out: D1 Affinity (K0.5) ± SEM; rat brain striatal homogenates, 3H-SCH 23390
PARAMETER: Ki (nM)
Numbers only here, please. The scale is nM.

Please look at this molecule and report its Ki: Cl.Oc1cc2c(cc1O)[C@@H]1c3cc(Cc4ccccc4)ccc3CN[C@H]1CC2 (relative stereo) [Compound 6e, hydrochloride]
290

###

# PROCEDURE TEXT: Half-life, duration of action and oral absorption
# Type: in vivo
# MEASUREMENT SETUP: serum; intravenous; read-out: half-life when given intravenously
Structures can show the parent of a compound that is named as a salt.
PARAMETER: half-life

Please look at this molecule and report its half-life: Oc1cc2c(cc1O)[C@H]1c3ccccc3CN[C@@H]1CC2 (racemic) [dihydrexidine, hydrochloride]
< 10 min

###

# PROCEDURE TEXT: Half-life, duration of action and oral absorption
# Type: in vivo
# MEASUREMENT SETUP: in vivo; intravenous; read-out: half-life when given intravenously
Counter-ions that a name gives are not always drawn.
PARAMETER: half-life

Please look at this molecule and report its half-life: Oc1cc2c(cc1O)[C@H]1c3ccccc3CN[C@@H]1CC2 (racemic) [dihydrexidine, hydrochloride]
~30 min

###

Where a name gives a salt, the structure may show the parent alone.
PARAMETER: melting point

Please look at this molecule and report its melting point: CCCN1Cc2cccc3c2C(C1)c1ccc(O)c(O)c1O3 (centres unmarked) [Compound 16c]
259 to 264 °C (dec.)

Please look at this molecule and report its melting point: Cc1ccc2c(c1)[C@H]1c3cc(O)c(O)cc3CC[C@@H]1NC2 (relative stereo) (as salt: hydrochloride) [Compound 6b]
190 °C (dec.)

Please look at this molecule and report its melting point: Br.Oc1ccc2c(c1O)Oc1cccc3c1C2CNC3 (centres unmarked)
298 to 302 °C (dec.)

Please look at this molecule and report its melting point: Cc1ccc2c(c1)CN[C@H]1CCc3cc(O)c(O)cc3[C@H]21 (relative stereo) (as salt: hydrochloride) [Compound 6c]
190 °C (dec.)

Please look at this molecule and report its melting point: Oc1ccc2c(c1O)Cc1cccc3c1C2CNC3 (centres unmarked) (as salt: hydrobromid) [dinapsoline]
258 °C (dec.)
